The entries below come with measured protein stability index values attached.
B1: SLC35F2 (parent)
chain: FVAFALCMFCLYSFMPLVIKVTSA

Variants of: B1
experimental_details: protein stability index of a GFP-peptide fusion (GPS, HEK-293T) (PSI 1-6); higher = more stable;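 note: lentivirally expressed fusions sorted by FACS into six bins by GFP to DsRed ratio, PSI derived from sequencing read proportions per bin multiplied by bin number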
condition_notes: c terminus: a fixed tail appended
Reply with the value as a number alone.

These solved cases illustrate the format of a correct answer.
mutant: T22C
protein stability index: 2.54
--
mutant: F14P
protein stability index: 2.46
--
mutant: Y12E
protein stability index: 3.32
--
mutant: A24K
protein stability index: 2.04
--
mutant: Y12G
protein stability index: 3.85

Which protein stability index is listed for K20H ?
1.78

Also, C10E please.
3.49
